Assay target: T1, HLA-DR5 (DRB1*11011), purified from cell line SWEIG (human)
T1 chain 1: not shown
T1 chain 2: not shown
Assay notes: competition vs 125I-peptide, purified class II MHC
Non-standard residues stand in square brackets, D forms with d. No end group written: not given here. 14 = not defined here
Consider the cut-off 4 nM. If the recorded IC50 is strictly smaller, the label is true; if not, the label is false.

binder="[dA]K[14]VYAWTLKAA[dA]-NH2 (reading uncertain; also: printed as aK(14)VYAWTLKAAa-NH2) [peptide 965.051, aK(14)…a-NH2]" classification=false
binder="[dA]K[14]VKANTLKAA[dA]-NH2 (reading uncertain; also: printed as aK(14)VKANTLKAAa-NH2) [peptide 965.011, aK(14)…a-NH2]" classification=false
binder="[dA]K[14]VWANTLKAA[dA]-NH2 (reading uncertain; also: printed as aK(14)VWANTLKAAa-NH2) [peptide 965.031, aK(14)…a-NH2]" classification=false
binder="[dA]K[14]VWANTLKAA[dA]-NH2 (reading uncertain; also: printed as aK(14)VWANTLKAAa-NH2) [peptide 965.032, aK(14)…a-NH2]" classification=true
binder="[dA]K[14]VYAWTLKAA[dA]-NH2 (reading uncertain; also: printed as aK(14)VYAWTLKAAa-NH2) [peptide 965.052, aK(14)…a-NH2]" classification=false
binder="[dA]K[14]VKANTLKAA[dA]-NH2 (reading uncertain; also: printed as aK(14)VKANTLKAAa-NH2) [peptide 965.012, aK(14)…a-NH2]" classification=true
binder="[dA]K[14]VAAHTLKAA[dA]-NH2 (reading uncertain; also: printed as aK(14)VAAHTLKAAa-NH2) [peptide 955.15 (as printed), aK(14)…a-NH2]" classification=false
binder="[dA]K[14]VKAWTLKAA[dA]-NH2 (reading uncertain; also: printed as aK(14)VKAWTLKAAa-NH2) [peptide 965.022, aK(14)…a-NH2]" classification=true
